Below is a list of entries, each paired with its recorded glycan array binding signal (z-score) value.
Target: Man(a1-2)Man(a1-3)[Man(a1-2)Man(a1-6)]Man
Experiment: glycan array binding signal (z-score within array); higher = stronger binding
Conditions: glycan notation: IUPAC condensed, linker removed
The sample as a whole holds a higher share of the strongest signals than the screen did.
Number only, no unit.

Before answering, review these 3 worked examples.
HPA (Helix pomatia), Q2F1K8 (protein) MQAFYSGLLLLCVVAFAAAQRVQSGKIDCGNDAGWAKVPSDDPGRDNTRELAKNITFASPYCRPPVVLLSITQLDVEQSQNLRVIARLYSVSPTGFKASCYTWHNTKVYSMSISWISIENY | -0.231
Cohesin-marm-DC-ASGPR-CRD (protein) LDITSHHHHHHDDLDAVRIKVDTVNAKPGDTVRIPVRFSGIPSKGIANCDFVYSYDPNVLEIIEIEPGDIIVDPNPDKSFDTAVYPDRKIIVFLFAEDSGTGAYAITKDGVFATIVAKVKEGAPNGLSVIKFVEVGGFANNDLVEQKTQFFDGGVNVGDTTEPATPTTPVTTPTTTDDLDAASCPINWVEHQGSCYWFSRSGKTWPEAERYCQLENTHLVVINSREEQNFVQAHLGSAYTWMGLSDPEGVWKWVDGTDYSSGFQNWKPGQPDDWQGHGLGGGEDCAHFHPDGRWNDDVCQRSYHWVCEAGLTQASQDSH | -0.447
Hip/Pap (Homo sapiens), Q06141 (protein) MLPPMALPSVSWMLLSCLMLLSQVQGEEPQRELPSARIRCPKGSKAYGSHCYALFLSPKSWTDADLACQKRPSGNLVSVLSGAEGSFVSSLVKSIGNSYSYVWIGLHDPTQGTEPNGEGWEWSSSDVMNYFAWERNPSTISSPGHCASLSRSTAFLRWKDYNCNVRLPYVCKFTD | 0.58

# context switch: different binder, same glycan array binding signal (z-score)
Recorded glycan array binding signal (z-score) for Mincle (Homo sapiens), Q9ULY5 (protein) MNSSKSSETQCTERGCFSSQMFLWTVAGIPILFLSACFITRCVVTFRIFQTCDEKKFQLPENFTELSCYNYGSGSVKNCCPLNWEYFQSSCYFFSTDTISWALSLKNCSAMGAHLVVINSQEEQEFLSYKKPKMREFFIGLSDQVVEGQWQWVDGTPLTKSLSFWDVGEPNNIATLEDCATMRDSSNPRQNWNDVTCFLNYFRICEMVGINPLNKGKSL , please?
0.813
